Tested on: HPPD polypeptides
Assay: coupled HPPD activity assay: turnover and residual turnover in crude extracts
Format: biochemical, Pseudomonas fluorescens
Conditions: 100 μM Cmpd. 1; signal change with inhibitor divided by signal change without inhibitor
# Residual turnover [%] per record follows
Numeric only. Scale: %

Sample records with Residual turnover [%]:
# molecule, Residual turnover [%] (%)
rows = [
    ("67 (protein, mutant HPPD polypeptide) MADLYENPMGLMGFEFIEFASPTPGTLEPIFEIMGFTKVATHRSKNVHLYRQGEINLILNNEPNSIASYFAAEHGPSVCGMAFRVKDSQKAYNRALELGAQPIHIDTGPMELNLPAIKGIGGAPLYLIDRFGEGSSIYDIDFVYLEGVERNPVGAGLKVIDHLTHNVYRGRMVYWANFYEKLFNFREARYFDIKGEYTGLTSKAMSAPDGMIKIPLNEESSKGAGQIEEFLMQFNGEGIQHVAFLTDDLVKTWDALKKIGMRFMTAPADSYYEMLEGRLPDHGEPVDQLQARGILLDGSSVEGDKRLLLQIFSERLMGPVFFEFIQRKGDDGFGPHSFKVLFEQMERDQVRRGVLTAD", 64),
    ("45 (protein, mutant HPPD polypeptide) MADLYENPMGLMGFEFIEFASPTPGTLEPIFEIMGFTKVATHRSKNVHLYRQGEINLILNNEPNSIASYFAAEHGPSVCGMAFRVKDSQKAYNRALELGAQPIHIDTGPMELNLPAIKGIGGAPLYLIDRFGEGSSIYDIDFVYLEGVERNPVGAGLKVIDHLTHNVYRGRMVYWANFYEKLFNFREARYFDIKGEYTGLTSKAMSAPDGMIRIPLNEESSKGAGQIEEFLMQFNGEGIQHVAFLTDDLVKTWDALKKIGMRFMTAPADNYYEMLEGRLPDHGEPVDQLQARGILLDGSSVEGDKRLLLQIFSETLMGPVFFEFIQRKGDDGFGPHSFKVLFEQVERDQVRRGVLTAD", 57),
]

Reported Residual turnover [%] for 29 (protein, mutant HPPD polypeptide) MADLYENPMGLMGFEFIEFASPTPGTLEPIFEIMGFTKVATHRSKNVHLYRQGEINLILNNEPNSIASYFAAEHGPSVCGMAFRVKDSQKAYNRALELGAQPIHIDTGPMELNLPAIKGIGGAPLYLIDRFGEGSSIYDIDFVYLEGVERNPVGAGLKVIDHLTHNVYRGRMVYWANFYEKLFNFREARYFDIKGEYTGLTSKAMSAPDGMIRIPLNEESSKGAGQIEEFLMQFNGEGIQHVAFLTDDLVKTWDALKKIGMRFMTAPPDNYYEMLEGRLPDHGEPVDQLQARGILLDGSSVEGDKRLLLQIFSETLMGPVFFEFIQRKGDDGFGPHSFKVLFESIERDQVRRGVLTAD : what is it?
29

Quick one: 57 (protein, mutant HPPD polypeptide) MADLYENPMGLMGFEFIEFASPTPGTLEPIFEIMGFTKVATHRSKNVHLYRQGEINLILNNEPNSIASYFAAEHGPSVCGMAFRVKDSQKAYNRALELGAQPIHIDTGPMELNLPAIKGIGGAPLYLIDRFGEGSSIYDIDFVYLEGVERNPVGAGLKVIDHLTHNVYRGRMVYWANFYEKLFNFREARYFDIKGEYTGLTSKAMSAPDGMIRIPLNEESSKGAGQIEEFLMQFNGEGIQHVAFLTDDLVKTWDALKKIGMRFMTAPADNYYEMLEGRLPDHGEPVDQLQARGILLDGSSVEGDKRLLLQIFSETLMGPVFFEFIQRKGDDGFGPHSFKVLFEQKERDQVRRGVLTAD
59
